# Measurement Notes: NFAT Signaling Pathway (AID 444);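 further: carbachol stimulus at about its EC50 of 1 µM final; on the % scale 0 is the no-effect control and ±100 the full control effect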
# Assay Setup: Jurkat NFAT-bla M1, carbachol, beta-lactamase ratio, 5 h; at 7.69 µM (top of the series) unless noted
Inconclusive results are not listed.
Property: activity change, negative = inhibition (%)
Numbers only, in %.

Solved cases (3 shown):
In [3]: df
Out[3]:
                               smiles_entry  value_measured
0  O=C(c1csnn1)N1CCC[C@@]2(CCN(Cc3cc(C(F)(F)F)cc(C(F)(F)F)c3)C2)C1            2.05
1  Cc1noc(C)c1C(=O)N1CCC[C@@]2(CCN(c3ccccn3)C2)C1           -10.2
2  O=C(c1cnccn1)N1CCC2(CC1)CCN(c1ccccn1)CC2            -4.5

Hi there! I need activity change, negative = inhibition for each item below, if you can.
1. COc1ccc(NC(=O)N2CC3(CCNCC3)C2)cc1
2. Cc1cnc(CNc2nc(-c3ccccc3Cl)nc3ccccc23)cn1
3. COCCn1c(=O)c(C)nc2cnc(OC)nc21
4. CN(C)c1ncc2nc(-c3ccc(F)cc3)c(=O)n(-c3ccccc3)c2n1
5. COc1ncc2nc(C)c(=O)n(Cc3cccs3)c2n1

## Output
1: 6.29; 2: 9.67; 3: 5.14; 4: 20.7; 5: -7.05

====

# System: 3D7
# Measurement Notes: qHTS profiling for inhibitors of Plasmodium falciparum proliferation (AID 504749); further: nearly all actives have a fitted effect of over 60% in size
# Assay Setup: P. falciparum in erythrocytes, SYBR Green DNA, 72 h; series mostly up to 12.8 µM
Records with an inconclusive call do not appear. The source made the active and inactive calls. Calls come from the whole dose curve; as a rule, active = well fitted inhibition curve with a large enough effect; inconclusive = small, poorly fitted or top-dose-only effect; inactive = flat fitted curve, though single readings scatter.
The reply should be one of these categories: active, inactive

Solved cases (5 shown):
Compound	Assigned Class
CC[C@@]12CCCN3CCc4c(n(c5ccccc45)C(=O)C1)[C@H]32	inactive
O=c1[nH]c(=O)n([C@@H]2C[C@H](O)[C@H](CO)O2)cc1I	inactive
CO[C@H]1C[C@@H](O[C@@H]2[C@H](C)[C@H](O[C@@H]3O[C@@H](C)C[C@@H](N(C)C)[C@@H]3O)[C@H](C)C[C@]3(CO3)C(=O)[C@H](C)[C@H](O)[C@H](C)[C@H](C)OC(=O)[C@@H]2C)O[C@@H](C)[C@H]1O	inactive
CC1(C)O[C@@H]2C[C@H]3[C@H]4C[C@H](F)C5=CC(=O)C=C[C@@]5(C)[C@@H]4[C@H](O)C[C@]3(C)[C@]2(C(=O)CO)O1	inactive
Cc1cc(/C=C\c2ccc3cc(N(C)C)ccc3[n+]2C)c(C)n1-c1ccccc1	active

## Input // outcome(item) with item = CCN(CC)CCC[C@H](C)Nc1ccnc2cc(Cl)ccc12
## Output active

## Input Kindly provide the recorded test outcome for the following compound: NC(=O)c1cc[n+](CC2=C(C(=O)O)N3C(=O)[C@@H](NC(=O)[C@H](c4ccccc4)S(=O)(=O)[O-])[C@@H]3SC2)cc1
## Output active

## Input Which result was noted for this compound in the test: COc1c(O)cc2c(c1O)[C@@H]1O[C@@H](CO)[C@@H](O)[C@@H](O)[C@@H]1OC2=O
## Output inactive

## Input Hi, sorry to bother you, what did the test record for CC(C)(C)NC[C@H](O)c1cc(O)cc(O)c1 ?
## Output inactive

====

What activity, negative = inhibition was measured for each of the following?
# Measurement Notes: Stat Signaling Pathway (AID 446);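 further: ME-180 cervical cancer cells given 40 pM IL-6 alongside compound; SIE-controlled beta-lactamase reporter measured as 460/530 nm FRET emission ratio; on the % scale 0 is the no-effect control and ±100 the full control effect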
# Assay Setup: ME-180 SIE beta-lactamase reporter, IL-6 stimulated, 5 h; at 7.69 µM (top of the series) unless noted
Results filed as inconclusive are left out. Activity calls are given as the source filed them. Calls come from the whole dose curve; as a rule, active = well fitted curve in either direction with a large enough effect (not every such curve was filed as active); inconclusive = small, poorly fitted or top-dose-only effect, or another doubt; inactive = flat fitted curve, though single readings scatter.

Example cases with answers are listed next.
Smiles Entry	activity, negative = inhibition
Cc1cnc(CNc2nc(-c3ccoc3)nc3ccccc23)cn1	9.84% (inactive)
COc1ccc(Oc2ncc3ncc(=O)n(C4CC4)c3n2)cc1	-19.9% (inactive)
CC(C)CN1CCC2(CC1)CCN(C(=O)c1ccncc1)CC2	-5.7% (inactive)
N#CCCn1c(=O)cnc2cnc(Oc3cccc(Cl)c3)nc21	-4.72% (inactive)
COc1ccc(-c2nc3cnc(N4CCN(C)CC4)nc3n(C3CC3)c2=O)cc1	-7.93% (inactive)
O=c1c(-c2cccs2)nc2cncnc2n1-c1ccccc1	-0.182% (inactive)
COc1ccccc1CN1CCCC2(CCN(C(C)=O)CC2)C1	9.98% (inactive)
CC(=O)N1CCC2(CCCN(c3cccc(-c4ccccc4)c3)C2)CC1	-8.45% (inactive)

# batch: return activity, negative = inhibition for each of the 3 compounds below
1. CN1CCN(c2ncnc3ccc(-c4ccoc4)cc23)CC1
2. CN(C)Cc1ccccc1-c1cc(N(C)C)ncn1
3. CC(=O)N1CCC2(CCN(Cc3ccc(C#N)cc3)CC2)CC1

## Output
-0.925% (inactive)
7.42% (inactive)
6.19% (inactive)

====

For each of the molecules below, state its activity change, negative = inhibition.
# Measurement Notes: AP1 Signaling Pathway (AID 357);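 further: ME-180 reporter cells stimulated with EGF at its EC50 level; on the % scale 0 is the no-effect control and ±100 the full control effect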
# Assay Setup: ME-180 (cervical carcinoma) AP-1-bla reporter, EGF-induced, beta-lactamase ratio, 5 h; at 7.69 µM (top of the series) unless noted
Results filed as inconclusive are left out. Activity calls are given as the source filed them. Calls follow the shape of the dose curve; as a rule, active = well fitted curve in either direction with a large enough effect (not every such curve was filed as active); inconclusive = small, poorly fitted or top-dose-only effect, or another doubt; inactive = flat fitted curve, though single readings scatter.

// solved cases for activity change, negative = inhibition follow
Smiles Entry	activity change, negative = inhibition
COc1cccc(-c2ccc3ncnc(NCCNC(C)=O)c3c2)c1	-19.2% (inactive)
COc1ccc(-n2c(=O)c(CCc3ccccc3)nc3cnc(N4CCOCC4)nc32)cc1	-17% (inactive)
O=S(=O)(c1ccccc1)N1CCC2(CC1)CN(Cc1nccs1)C2	11.1% (inactive)
O=c1cnc2cnc(Oc3ccccc3)nc2n1C1CC1	-14% (inactive)
CC(=O)N(CC(O)CN(C(C)=O)c1c(I)c(C(=O)NC[C@@H](O)CO)c(I)c(C(=O)NC[C@@H](O)CO)c1I)c1c(I)c(C(=O)NC[C@@H](O)CO)c(I)c(C(=O)NC[C@@H](O)CO)c1I	2.7% [at 17.2 µM] (inactive)
N#Cc1cccc(NC(=O)N2CC[C@@]3(CCCN(C(=O)c4cccc(F)c4)C3)C2)c1	-20.8% (inactive)
CC(C)NC(=O)N1CCCC2(CCN(C(=O)c3ccco3)CC2)C1	4.82% (inactive)
O=c1c(-c2ccccc2)nc2cnc(N3CCOCC3)nc2n1Cc1cccs1	20.9% (inactive)

Then this molecule:
## Input Need activity change, negative = inhibition of c1ccc(Nc2ncncc2-c2ccc3c(c2)OCO3)cc1 , thanks.
## Output -19.3% (inactive)

====

# Target Entity: Glucocorticoid receptor (Homo sapiens) (UniProt P04150)
# Sequence (P04150 whole entry, looked up): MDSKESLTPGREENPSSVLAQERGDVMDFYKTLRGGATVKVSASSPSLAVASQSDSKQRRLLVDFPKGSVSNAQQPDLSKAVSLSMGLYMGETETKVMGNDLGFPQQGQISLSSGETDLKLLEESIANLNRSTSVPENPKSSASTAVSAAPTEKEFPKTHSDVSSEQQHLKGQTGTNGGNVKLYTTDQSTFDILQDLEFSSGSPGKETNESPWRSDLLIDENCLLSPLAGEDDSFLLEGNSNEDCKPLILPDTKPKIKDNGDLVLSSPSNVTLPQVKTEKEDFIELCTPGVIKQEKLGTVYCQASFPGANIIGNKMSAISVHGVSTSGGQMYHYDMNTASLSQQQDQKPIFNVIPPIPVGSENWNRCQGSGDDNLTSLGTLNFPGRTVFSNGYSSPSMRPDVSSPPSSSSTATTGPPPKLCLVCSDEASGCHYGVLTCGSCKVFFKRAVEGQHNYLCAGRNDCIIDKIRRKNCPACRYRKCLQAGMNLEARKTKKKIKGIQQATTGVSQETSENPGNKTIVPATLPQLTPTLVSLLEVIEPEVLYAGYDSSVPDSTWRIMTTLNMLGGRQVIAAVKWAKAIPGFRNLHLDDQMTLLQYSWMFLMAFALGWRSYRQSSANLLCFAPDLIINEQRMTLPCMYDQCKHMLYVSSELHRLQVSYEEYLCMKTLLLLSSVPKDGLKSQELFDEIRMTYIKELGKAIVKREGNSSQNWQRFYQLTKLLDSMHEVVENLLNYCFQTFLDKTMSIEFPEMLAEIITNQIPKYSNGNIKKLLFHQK
# Measurement Notes: GR-GFP Redistribution (AID 450); further: potency means the concentration at half of the fitted maximal effect
# Assay Setup: U2OS GR-GFP nuclear translocation, laser cytometry, 2 h
The source made the active and inactive calls.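 The calls were made as follows: active = compounds whose dose series gives a full or clear partial fitted curve of increased nuclear translocation; inconclusive = weak partial curve or effect only at the top dose; inactive = no dose-dependent translocation response.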
Property: Potency

Smiles Entry	Value Measured
COc1ccc(-n2c(=O)c(-c3ccccc3)nc3cncnc32)cc1	> 9.22 µM (inactive)
CN(C)C(=O)c1ccc(-c2nc(NCc3ccccc3)c3ccccc3n2)cc1	> 46 µM (inactive)
COc1ccccc1CNc1cc(-c2ccoc2)ncn1	> 46 µM (inactive)
COc1ccccc1-c1nc(N2CCOCC2)c2ccccc2n1	> 46 µM (inactive)
CC(=O)N(CC(O)CN(C(C)=O)c1c(I)c(C(=O)NC[C@@H](O)CO)c(I)c(C(=O)NC[C@@H](O)CO)c1I)c1c(I)c(C(=O)NC[C@@H](O)CO)c(I)c(C(=O)NC[C@@H](O)CO)c1I	> 20.6 µM (inactive)

For every item in the list below, what is its measured Potency?
1. CN(C)c1ncc2nc(-c3cccc(C#N)c3)c(=O)n(C)c2n1
2. CN(C)c1ncc2nc(-c3cc(F)cc(F)c3)c(=O)n(CCc3ccccc3)c2n1

## Output
1. > 9.22 µM (inactive)
2. > 9.22 µM (inactive)

Could I get Potency for every one of these entries?
1. CNc1nc(-c2c(C)noc2C)nc2ccccc12
2. COc1ccc2[nH]cc(CCNc3cc(-c4ccc(C(=O)N(C)C)cc4)ncn3)c2c1
3. Cc1cnc(CNc2ncnc3ccc(-c4ccc(C(=O)N(C)C)cc4)cc23)cn1
4. COc1ccc(CNc2ccnc(-c3ccccc3OC)n2)c(OC)c1
5. N#CCCn1c(=O)c(-c2ccc(Cl)cc2)nc2cnc(Oc3cccc(Cl)c3)nc21

## Output
["> 46 µM (inactive)", "> 46 µM (inactive)", "> 46 µM (inactive)", "> 46 µM (inactive)", "> 9.22 µM (inactive)"]

====

# Measurement Notes: qHTS Assay for Lipid Storage Modulators (AID 1519)
# Assay Setup: Drosophila S3 cells, BODIPY lipid droplet/cell ratio, laser cytometry; measured here: cell count channel max response; cells loaded with oleic acid
Results filed as inconclusive are left out.
Record form. Attribute: max response. Fill in for each entry.
Kindly write the number and append the unit.

Observe how each entry below is paired with its result.
>>> df
                                   compound  value_measured
0      COCCNc1ncnc2ccc(-c3ccccc3CN(C)C)cc12           13.6%
1  CC(=O)Oc1ccc2c(c1)CCC1C2CC[C@]2(C)C(OC(C)=O)CCC12 (stereo partly specified)              4%
2  COc1cccc(-c2cc(NCCc3c[nH]c4ccc(OC)cc34)ncn2)c1           8.88%
3  O=S(=O)(c1ccccc1)N1CCC2(CC1)CN(c1ccccn1)C2          -4.86%
4  CS(=O)(=O)N1CCC2(CCCN(Cc3ccc(C#N)cc3)C2)CC1          -8.06%

## Input State the recorded max response for this entry: CC(=O)N1CCC2(CC1)CCN(c1ncccn1)CC2
## Output 8.06%
